Source listed as patent US20120010075A1.

- Tested on: Leptosphaeria nodorum (LEPTNO)
- Procedure details: Isolated metal-hydrazone complexes versus parent hydrazones, in vitro, Leptosphaeria nodorum (Example 31, Table 7)
- Format: cell-based
- Study conditions: Parastagonospora nodorum; 0.1 μg/mL; copper-minus medium; 72 h
Measured quantity: inhibition at 0.1 µg/mL (%)
A number alone suffices; assume %.

Consider the reported inhibition at 0.1 µg/mL for these compounds:
C/C(=N\NC(=O)c1ccccc1)c1cc(Cl)cc(Cl)c1O 23.3
O=C(N/N=C/c1c(O)cccc1Cl)c1ccc(Cl)cc1 12.1
O=C(N/N=C/c1cc(Cl)cc(Cl)c1O)c1cc(Cl)ccc1Cl 27.9

Turning now to a further compound:
Task item: What does the record list as inhibition at 0.1 µg/mL for C/C(=N\NC(=O)c1ccccc1Cl)c1cc(Cl)cc(Cl)c1O ?
Reply: 4.2

---

- Tested on: Phytophthora infestans
- Type: in vivo, Phytophthora infestans on tomato
- Study conditions: hydrazone 50 ppm + 50 μM CuCl2.2H2O, applied 24 h before inoculation, assessed 7 days after inoculation, tomato
So basically, the class depends on measured TLB % Control, and the ranges are LOW = under 50%, MID = from 50% up to 80%, HIGH = 80% and over

Past entries and their recorded results:
O=C(N/N=C/c1ccc(C(F)(F)F)cc1O)c1ccccc1 MID
C/C(=N\NC(=O)c1ccccc1C)c1cccc([N+](=O)[O-])c1O LOW
O=C(N/N=C/c1cc(Cl)cc(Cl)c1O)c1ccc(Cl)cc1 MID

Task item: Lab log: O=C(N/N=C/c1cc(Br)cc(Br)c1O)c1cccc(F)c1 — assign TLB % Control category
Reply: HIGH

Task item: Lab log: O=C(N/N=C/c1cc(Cl)ccc1O)c1cc(Cl)ccc1Cl — assign TLB % Control category
Reply: MID

Task item: Lab log: COc1cc([N+](=O)[O-])cc(/C=N/NC(=O)c2ccccc2)c1O — assign TLB % Control category
Reply: LOW

Task item: Lab log: O=C(N/N=C/c1cc(Cl)cc(Cl)c1O)c1ccc2ccccc2c1 — assign TLB % Control category
Reply: MID

Task item: Lab log: O=C(N/N=C/c1cc(Cl)cc(Cl)c1O)c1ccc2c(c1)OCO2 — assign TLB % Control category
Reply: HIGH

---

- Tested on: Leptosphaeria nodorum (LEPTNO)
- Procedure details: In vitro fungitoxicity of hydrazones with and without copper towards Leptosphaeria nodorum (Example 26)
- Format: cell-based
- Study conditions: copper-plus medium (CuCl2 10 μM); test compound Concn. 0.05 μg/mL; 72 h at 25° C.
Catalogue of compounds with associated LEPTNO % Inhn. Plus Copper Observed
A number alone suffices; assume %.

Task item: Which measured LEPTNO % Inhn. Plus Copper Observed belongs to Cc1ccc(C(=O)N/N=C/c2cccc(Cl)c2O)cc1 , tested on Leptosphaeria nodorum (LEPTNO)?
Reply: 97.0

Task item: Which measured LEPTNO % Inhn. Plus Copper Observed belongs to C/C(=N\NC(=O)c1ccccc1Cl)c1cc(C)ccc1O , tested on Leptosphaeria nodorum (LEPTNO)?
Reply: 95.8

Task item: Which measured LEPTNO % Inhn. Plus Copper Observed belongs to O=C(N/N=C/c1c(C(F)(F)F)ccc(Cl)c1O)c1ccc([N+](=O)[O-])cc1 , tested on Leptosphaeria nodorum (LEPTNO)?
Reply: 100.0

Task item: Which measured LEPTNO % Inhn. Plus Copper Observed belongs to O=C(N/N=C/c1cc(Br)cc(F)c1O)c1ccccc1O , tested on Leptosphaeria nodorum (LEPTNO)?
Reply: 96.3

Task item: Which measured LEPTNO % Inhn. Plus Copper Observed belongs to O=C(N/N=C/c1cc(C(F)(F)F)cc(Cl)c1O)c1ccc([N+](=O)[O-])cc1 , tested on Leptosphaeria nodorum (LEPTNO)?
Reply: 95.1

Task item: Which measured LEPTNO % Inhn. Plus Copper Observed belongs to O=C(N/N=C/c1cc(C(F)(F)F)ccc1O)c1cccc([N+](=O)[O-])c1 , tested on Leptosphaeria nodorum (LEPTNO)?
Reply: 100.0

Task item: Which measured LEPTNO % Inhn. Plus Copper Observed belongs to COc1ccc(C(=O)N/N=C(\C)c2cc(C(F)(F)F)ccc2O)cc1 , tested on Leptosphaeria nodorum (LEPTNO)?
Reply: 95.7

Task item: Which measured LEPTNO % Inhn. Plus Copper Observed belongs to O=C(N/N=C/c1cc(Cl)cc(C(F)(F)F)c1O)c1ccc(F)cc1 , tested on Leptosphaeria nodorum (LEPTNO)?
Reply: 98.2

Task item: Which measured LEPTNO % Inhn. Plus Copper Observed belongs to C/C(=N\NC(=O)c1ccc(C(F)(F)F)cc1)c1cccc([N+](=O)[O-])c1O , tested on Leptosphaeria nodorum (LEPTNO)?
Reply: 97.7

---

- Test system: Leptosphaeria nodorum (LEPTNO)
- Procedure details: In vitro fungitoxicity of hydrazones with and without copper towards Leptosphaeria nodorum (Example 26)
- Format: cell-based
- Study conditions: compound 0.05 μg/mL, copper-minus medium, 72 h at 25° C.
Catalogue of molecules with associated LEPTNO % Inhn. Minus Copper Observed
Write the figure, then the unit, nothing else.

Consider the reported LEPTNO % Inhn. Minus Copper Observed for these molecules:
Molecule	Measured quantity	Experimental result
CC(C)c1ccc(C(=O)N/N=C/c2cc(Cl)cc(Cl)c2O)cc1 [Example 42]	LEPTNO % Inhn. Minus Copper Observed	9.2%
Cc1ccc(C(=O)N/N=C(\CCc2ccccc2)c2ccccc2O)c(C)c1	LEPTNO % Inhn. Minus Copper Observed	3.8%
O=C(N/N=C/c1cccc(F)c1O)c1ccccc1	LEPTNO % Inhn. Minus Copper Observed	4.4%
C/C(=N\NC(=O)c1cccc(I)c1)c1ccccc1O [Example 13]	LEPTNO % Inhn. Minus Copper Observed	0.0%
CC(C)c1ccc(C(=O)N/N=C/c2cc(Cl)cc(Cl)c2O)cc1 [Example 41]	LEPTNO % Inhn. Minus Copper Observed	0.0%
C/C(=N\NC(=O)c1ccc(C)cc1C)c1ccccc1O	LEPTNO % Inhn. Minus Copper Observed	0.0%

Task item: What does the record list as LEPTNO % Inhn. Minus Copper Observed for CC/C(=N\NC(=O)c1ccc(C)cc1C)c1ccccc1O ?
Reply: 0.0%

Task item: What does the record list as LEPTNO % Inhn. Minus Copper Observed for Cc1ccc(C(=O)N/N=C/c2cc(Br)cc(Br)c2O)c(C)c1 [Example 28] ?
Reply: 7.0%

Task item: What does the record list as LEPTNO % Inhn. Minus Copper Observed for Cc1ccc(C(=O)N/N=C/c2cc(Br)cc(Br)c2O)c(C)c1 [Example 32] ?
Reply: 0.0%

Task item: What does the record list as LEPTNO % Inhn. Minus Copper Observed for C/C(=N\NC(=O)c1cccc(I)c1)c1ccccc1O [Example 26] ?
Reply: 2.1%

---

- Test system: Leptosphaeria nodorum (LEPTNO)
- Procedure details: In vitro fungitoxicity of hydrazones with and without copper towards Leptosphaeria nodorum (Example 26)
- Type: cell-based
- Study conditions: Parastagonospora nodorum, 72 h, copper-minus medium; test compound Concn. 0.05 μg/mL; 72 h at 25° C.; read-out: LEPTNO % Inhn. Minus Copper Observed
Measured quantity: inhibition of growth at 0.05 µg/mL (%)
A number alone suffices; assume %.

Consider the reported inhibition of growth at 0.05 µg/mL for these compounds:
Compound	inhibition of growth at 0.05 µg/mL [%]
COc1ccc(/C(C)=N/NC(=O)c2cccc(Cl)c2)c(O)c1OC [Example 556]	7.7
C/C(=N\NC(=O)c1ccccc1Br)c1cc(Br)ccc1O [Example 519]	9.1
C/C(=N\NC(=O)c1ccc(Cl)cc1)c1cc(C(F)(F)F)ccc1O [Example 533]	6.2

Task item: What does the record list as inhibition of growth at 0.05 µg/mL for CC/C(=N\NC(=O)c1ccccc1)c1cc(Cl)cc(Cl)c1O [Example 590] ?
Reply: 10

Task item: What does the record list as inhibition of growth at 0.05 µg/mL for O=C(N/N=C/c1ccc(Cl)cc1O)c1cccc([N+](=O)[O-])c1 [Example 393] ?
Reply: 4.3

---

Catalogue of molecules with associated melting point

Consider the reported melting point for these molecules:
C/C(=N\NC(=O)c1cccc(Oc2ccccc2)c1)c1ccccc1O 178 to 180 °C
Cc1ccc(C(=O)N/N=C/c2c(Cl)ccc(Cl)c2O)cc1 267 to 269 °C
COc1cc(O)c(/C(C)=N/NC(=O)c2ccccc2O)c(OC)c1 182 to 199 °C

Task item: What does the record list as melting point for C/C(=N\NC(=O)c1ccccc1O)c1ccc(Cl)cc1O ?
Reply: 311 to 312 °C

Task item: What does the record list as melting point for Cc1cccc(C(=O)N/N=C/c2c(Cl)ccc(Cl)c2O)c1 ?
Reply: 214 to 216 °C

---

Measured quantity: melting point

Task item: What does the record list as melting point for O=C(N/N=C/c1cc(C(F)(F)F)ccc1O)c1ccc(Cl)cc1 ?
Reply: 252 to 254 °C

Task item: What does the record list as melting point for COc1cc(O)c(/C(C)=N/NC(=O)c2ccc(Cl)cc2)c(OC)c1 ?
Reply: 136 to 140 °C
